B1: Osa-1-4 twister ribozyme (parent)
chain: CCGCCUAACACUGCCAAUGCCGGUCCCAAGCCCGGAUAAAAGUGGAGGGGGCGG

Variants of: B1
experimental_protocol: self-cleavage, relative activity (ratio to wild type); higher = more cleavage; co-transcriptional
So I've got a bunch of variants here, and I need their self-cleavage values.
Numbers only.

Solved entries (count: 2):
G13U G49A    0.01
A28U G19C    0.07

Okay, here is my list. What is self-cleavage for each of these?
1. U24A
2. G48U U43C
3. A10G A46C
4. C21G G13C
5. A39C G53U
6. G22U G35C
7. A36G G50C

A.
1. 0.42
2. 0.05
3. 0.06
4. 0.01
5. 0.12
6. 0.11
7. 1.04

Hi, could you look up self-cleavage for each item in my list?
1. A28G G22C
2. C32U C33G
3. C15U G47U
4. C25A U12C
5. A28C C15G
6. A28G G13U
7. A46G G53U
8. A17G G47A

A.
1: 0.06; 2: 0.02; 3: 0.05; 4: 0.04; 5: 0.32; 6: 0.01; 7: 0.07; 8: 0.46

Dear reader, for each entry below, please note its self-cleavage.
1. A10C G49A
2. G19C G35C
3. C32A G34C
4. A46U
5. G23A G48C

A.
[0.02, 0.29, 0.08, 0.08, 0.06]
